Here the recorded Kin x10e3 is given for each entry.
// units = hr-1; emit number, no label

input: Value lookup for Kin x10e3; key = NS(=O)(=O)c1ccc(NC(=O)CN(CCOCCOCCN(CC(=O)O)CC(=O)Nc2ccc(S(N)(=O)=O)cc2F)CC(=O)O)c(F)c1
output: 4.5

input: What do you get for NS(=O)(=O)C1N=NC(NC(=O)CN(CCN(CCN(CC(=O)O)CC(=O)NC2N=NC(S(N)(=O)=O)S2)CC(=O)O)CC(=O)O)S1 (stereo not given) ?
output: 3.9

input: What do you get for NS(=O)(=O)c1nnc(NC(=O)CN(CCOCCOCCN(CC(=O)O)CC(=O)O)CC(=O)O)s1 ?
output: 4.6

input: What do you get for NS(=O)(=O)c1nc2ccc(OC(=O)CNCCNCC(=O)O)cc2s1 ?
output: 4.7

input: What do you get for NS(=O)(=O)c1ccc(NC(=O)CN(CCOCCOCCN(CC(=O)O)CC(=O)O)CC(=O)O)c(Br)c1 ?
output: 3.3
